run-description: Tissue distribution in Swiss nu/nu SSCUP mice bearing Beu
Type: in vivo, human
reported-conditions: mouse, stomach, iv, 3 umol/animal; 4 h; read-out: stomach % ID/g
recorded-metric: tissue uptake at 4 h (%ID/g)
Record the value in %ID/g, omitting the unit from your answer.

Ask | // query tissue uptake at 4 h value for entry CCN(CC)CCNC(=O)c1ccc(I)cc1 [Derivative A, N-(2-diethylaminoethyl) 4-iodo benzamide]
Reply | 1.16

----------
run-description: Tissue distribution in Swiss nu/nu SSCUP mice bearing Beu
Type: in vivo, human
reported-conditions: mouse, plasma, iv, 3 umol/animal, 24 h; read-out: plasma % ID/g
recorded-metric: tissue uptake at 24 h (%ID/g)
Record the value in %ID/g, omitting the unit from your answer.

Ask | // query tissue uptake at 24 h value for entry CCN(CC)CCNC(=O)c1ccc(I)cc1 [Derivative A, N-(2-diethylaminoethyl) 4-iodo benzamide]
Reply | 0.01

----------
run-description: Tissue distribution in C57 BL6 mice bearing B16
Type: in vivo, mouse
reported-conditions: mouse, stomach, iv, 3 umol/animal; 1 h; read-out: stomach % ID/g
Procedure: The study of the tissue distribution of the ^125 I labelled compounds was performed in mice bearing grafted melanomas (cf. autoradiograms above). […] The animals are sacrificed at different time intervals of 1 to 24 hours after the injection. The blood is collected and the principal organs are excised. Aliquots are weighed and the radioactivity of the samples is measured in a […] 1191 counter (analytic tracer). The counting yield for iodine 125 is 60%. […]
recorded-metric: tissue uptake at 1 h (%ID/g)
Record the value in %ID/g, omitting the unit from your answer.

Ask | // query tissue uptake at 1 h value for entry CCN(CC)CCNC(=O)c1ccc(I)cc1 [Derivative A, N-(2-diethylaminoethyl) 4-iodo benzamide]
Reply | 6.03

----------
run-description: Tissue distribution in C57 BL6 mice bearing B16
Format: in vivo, mouse
reported-conditions: mouse, liver, iv, 3 umol/animal, 4 h; read-out: liver % ID/g
For each record, write down the corresponding tissue uptake at 4 h.
Record the value in %ID/g, omitting the unit from your answer.

Ask | // query tissue uptake at 4 h value for entry CCNCCNC(=O)c1ccc(I)cc1 [Derivative B, N-(2-ethylaminoethyl) 4-iodo benzamide]
Reply | 2.05

Ask | // query tissue uptake at 4 h value for entry CCN(CC)CCNC(=O)c1ccc(I)cc1 [Derivative A, N-(2-diethylaminoethyl) 4-iodo benzamide]
Reply | 2.46

----------
run-description: Tissue distribution in Swiss nu/nu SSCUP mice bearing Dau
Type: in vivo, human
reported-conditions: mouse, muscle, iv, 3 umol/animal, 4 h; read-out: muscle % ID/g
For each record, write down the corresponding tissue uptake at 4 h.
Param answer (str): number followed by unit.

Ask | // query tissue uptake at 4 h value for entry CCNCCNC(=O)c1ccc(I)cc1 [Derivative B, N-(2-ethylaminoethyl) 4-iodo benzamide]
Reply | 0.41 %ID/g

Ask | // query tissue uptake at 4 h value for entry CCN(CC)CCNC(=O)c1ccc(I)cc1 [Derivative A, N-(2-diethylaminoethyl) 4-iodo benzamide]
Reply | 0.32 %ID/g

----------
For each record, write down the corresponding tissue uptake at 2 h.
run-description: Tissue distribution in Swiss nu/nu SSCUP mice bearing Dau
Assay type: in vivo, human
reported-conditions: mouse, liver, iv, 3 umol/animal, 2 h; read-out: liver % ID/g
Param answer (str): number followed by unit.

Ask | // query tissue uptake at 2 h value for entry CCN(CC)CCNC(=O)c1ccc(I)cc1 [Derivative A, N-(2-diethylaminoethyl) 4-iodo benzamide]
Reply | 3.35 %ID/g

Ask | // query tissue uptake at 2 h value for entry CCNCCNC(=O)c1ccc(I)cc1 [Derivative B, N-(2-ethylaminoethyl) 4-iodo benzamide]
Reply | 3.16 %ID/g
